# Tested on: Human immunodeficiency virus 1
# method.notes: Antiviral activity against HIV-1 harboring Y181C mutant infected in human MT4 cells assessed as virus-induced cytopathicity treated for 5 days by MTT assay
# Format: functional, organism-based
# stated.conditions: Human immunodeficiency virus 1, MT4, 120 h; read-out: EC50
measured.quantity: EC50

smiles.entry	value.measured
Cc1cc(/C=C/C#N)cc(C)c1Oc1nc(NC2CCN(Cc3ccc(S(N)(=O)=O)cc3)CC2)ncc1-c1ccc(N)cc1	5.37 nM
Cc1cc(/C=C/C#N)cc(C)c1Cc1nc(NC2CCN(Cc3ccc(S(N)(=O)=O)cc3)CC2)ncc1-c1cncnc1	8.21 nM
Cc1cc(/C=C/C#N)cc(C)c1Oc1nc(NC2CCN(Cc3ccc(S(C)(=O)=O)cc3)CC2)ncc1-c1ccc(N)cc1	8.09 nM
Cc1cc(/C=C/C#N)cc(C)c1Oc1nc(NC2CCN(Cc3ccc(C(N)=O)cc3)CC2)ncc1-c1ccc2c(c1)OCO2	9.42 nM
Cc1cc(/C=C/C#N)cc(C)c1Oc1nc(NC2CCN(Cc3ccc(C(N)=O)cc3)CC2)ncc1-c1cccc(N)c1	10.1 nM
Cc1cc(/C=C/C#N)cc(C)c1Cc1nc(NC2CCN(Cc3ccc(S(C)(=O)=O)cc3)CC2)ncc1-c1cncnc1	5.45 nM
